Hello, the source for this data is patent US20060160869A1, in case you need it.

system-tested: MDM2 (Homo sapiens, UniProt Q00987)
Sequence (Q00987 whole entry): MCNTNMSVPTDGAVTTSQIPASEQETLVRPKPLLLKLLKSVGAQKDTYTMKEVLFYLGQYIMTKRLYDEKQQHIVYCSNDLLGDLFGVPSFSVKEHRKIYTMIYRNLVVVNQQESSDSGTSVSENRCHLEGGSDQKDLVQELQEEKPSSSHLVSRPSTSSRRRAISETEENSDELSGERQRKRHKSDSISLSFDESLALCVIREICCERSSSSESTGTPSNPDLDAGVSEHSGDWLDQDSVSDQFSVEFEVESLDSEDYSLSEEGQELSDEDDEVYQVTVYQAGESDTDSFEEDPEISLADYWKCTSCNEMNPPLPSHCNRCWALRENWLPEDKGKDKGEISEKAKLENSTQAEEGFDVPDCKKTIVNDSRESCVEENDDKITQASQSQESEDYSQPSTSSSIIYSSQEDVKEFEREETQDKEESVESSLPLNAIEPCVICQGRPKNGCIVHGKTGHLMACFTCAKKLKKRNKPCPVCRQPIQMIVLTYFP
assay-details: Plate-based E3 ligase assay, MDM2 autoubiquitination (MDM2-FLAG)
Assay type: biochemical
setup-conditions: Table 3; read-out: MDM2 Plate IC50
pIC50: −log10 of the molar value.
readout-label: pIC50

// solved cases for pIC50 follow
compound	result
COc1cccc(CN(Cc2ccc(C(=O)N3CCNCC3)cc2)c2nc(-c3ccc(Br)cc3)cs2)c1OC [compound 353]	4.70 to 6.00
O=C(c1ccc(CN(Cc2cccc(OC(F)(F)F)c2)c2nc(-c3ccc4ccccc4c3)cs2)cc1)N1CCNCC1 [compound 282]	4.70 to 6.00
O=C(c1ccc(CN(Cc2cccc(OC(F)(F)F)c2)c2nc(-c3ccccc3)cs2)cc1)N1CCNCC1 [compound 275]	4.70 to 6.00
COc1cccc(-c2csc(N(Cc3ccc(C(=O)N4CCNCC4)cc3)Cc3cccc(OC(F)(F)F)c3)n2)c1 [compound 351]	4.70 to 6.00
O=C(c1ccc(CN(CCOc2ccccc2)c2nc(-c3ccc(Cl)c(Cl)c3)cs2)cc1)N1CCNCC1 [compound 360]	> 6.00

Now take the following compound into account.
[ask] Quick one: pIC50 of COc1cccc(-c2csc(N(CCOc3ccccc3)Cc3ccc(C(=O)N4CCNCC4)cc3)n2)c1 [compound 352] ?
[reply] 4.70 to 6.00

---

system-tested: MDM2 (Homo sapiens, UniProt Q00987)
assay-details: Plate-based E3 ligase assay, MDM2 autoubiquitination (MDM2-FLAG)
Assay type: biochemical
setup-conditions: Table 2; read-out: MDM2 IC50
pIC50: −log10 of the molar value.
compounds and their reported pIC50

compound	system-tested	pIC50
COc1cccc(-c2csc(N(CCN(C(C)C)C(C)C)Cc3ccc(C(=O)N4CCNCC4)cc3)n2)c1 [compound 231]	MDM2 (Homo sapiens, UniProt Q00987)	≤ 4.70
O=C(c1ccc(CN(CCOc2ccccc2)c2nc(-c3ccc(Cl)c(Cl)c3)cs2)cc1)N1CCNCC1 [compound 360]	MDM2 (Homo sapiens, UniProt Q00987)	4.70 to 6.00
O=C(c1ccc(CN(Cc2cccc(OC(F)(F)F)c2)c2nc(-c3cccc([N+](=O)[O-])c3)cs2)cc1)N1CCNCC1 [compound 228]	MDM2 (Homo sapiens, UniProt Q00987)	≤ 4.70
O=C(O)CNC(=O)c1ccc(CN(CCc2ccccc2)c2nc(-c3ccccc3)cs2)cc1 [compound 186]	MDM2 (Homo sapiens, UniProt Q00987)	4.70 to 6.00
COc1ccc(OC)c(-c2csc(N(Cc3ccccc3)Cc3ccc(C(=O)NCC(=O)O)cc3)n2)c1 [compound 207]	MDM2 (Homo sapiens, UniProt Q00987)	4.70 to 6.00

[ask] Give pIC50 (MDM2 (Homo sapiens, UniProt Q00987)) of the following compound: COc1ccc(OC)c(-c2csc(N(CCOc3ccccc3)Cc3ccc(C(=O)N4CCNCC4)cc3)n2)c1 [compound 268]
[reply] ≤ 4.70

[ask] Give pIC50 (MDM2 (Homo sapiens, UniProt Q00987)) of the following compound: COc1ccccc1-c1csc(N(Cc2ccc(C(=O)N3CCNCC3)cc2)Cc2cccc(OC(F)(F)F)c2)n1 [compound 328]
[reply] 4.70 to 6.00

---

system-tested: MDM2 (Homo sapiens, UniProt Q00987)
assay-details: Plate-based E3 ligase assay, MDM2 autoubiquitination (MDM2-FLAG)
Type: biochemical
setup-conditions: Table 2; read-out: MDM2 IC50
readout-label: IC50

// solved cases for IC50 follow
molecule	IC50
COc1cccc(CN(Cc2ccc(C(=O)N3CCNCC3)cc2)c2nc(-c3ccccc3Cl)cs2)c1OC	≥ 20 µM
COc1cccc(CN(Cc2ccc(C(=O)N3CCNCC3)cc2)c2nc(-c3ccc(Br)cc3)cs2)c1OC	1 to 20 µM
COc1ccc(OC)c(-c2csc(N(Cc3ccc(C(=O)NCC(=O)O)cc3)c3ccccc3F)n2)c1	< 1 µM
COc1cccc(CN(Cc2ccc(C(=O)N3CCNCC3)cc2)c2nc(-c3ccc(Cl)c(Cl)c3)cs2)c1OC	1 to 20 µM

[ask] Quick one: IC50 of O=C(c1ccc(CN(CCOc2ccccc2)c2nc(-c3ccc(Cl)cc3)cs2)cc1)N1CCNCC1 ?
[reply] ≥ 20 µM

[ask] Quick one: IC50 of CC(C)N(CCN(Cc1ccc(C(=O)N2CCNCC2)cc1)c1nc(-c2cccc([N+](=O)[O-])c2)cs1)C(C)C ?
[reply] ≥ 20 µM

[ask] Quick one: IC50 of Cc1ccc(-c2csc(N(Cc3ccc(C(=O)N4CCNCC4)cc3)Cc3cccc(OC(F)(F)F)c3)n2)cc1 ?
[reply] 1 to 20 µM

[ask] Quick one: IC50 of O=C(c1ccc(CN(Cc2cccc(OC(F)(F)F)c2)c2nc(-c3ccc(Cl)cc3)cs2)cc1)N1CCNCC1 ?
[reply] ≥ 20 µM

[ask] Quick one: IC50 of COc1ccc(-c2csc(N(CCOc3ccccc3)Cc3ccc(C(=O)N4CCNCC4)cc3)n2)cc1 ?
[reply] ≥ 20 µM

[ask] Quick one: IC50 of O=C(O)CNC(=O)c1ccc(CN(Cc2ccccc2)c2nc(-c3ccccc3)cs2)cc1 ?
[reply] 1 to 20 µM

[ask] Quick one: IC50 of O=C(c1ccc(CN(Cc2cccc(OC(F)(F)F)c2)c2nc(-c3ccccc3)cs2)cc1)N1CCNCC1 ?
[reply] 1 to 20 µM

[ask] Quick one: IC50 of COc1ccc(-c2csc(N(Cc3ccc(C(=O)N4CCNCC4)cc3)Cc3cccc(OC(F)(F)F)c3)n2)cc1 ?
[reply] ≥ 20 µM

[ask] Quick one: IC50 of O=C(c1ccc(CN(c2nc(-c3ccc(Cl)cc3)cs2)c2cccc3ccccc23)cc1)N1CCNCC1 ?
[reply] ≥ 20 µM

[ask] Quick one: IC50 of O=C(c1ccc(CN(CCOc2ccccc2)c2nc(-c3ccc(F)cc3)cs2)cc1)N1CCNCC1 ?
[reply] ≥ 20 µM

[ask] Quick one: IC50 of COc1cccc(CN(Cc2ccc(C(=O)N3CCNCC3)cc2)c2nc(-c3cccc([N+](=O)[O-])c3)cs2)c1OC ?
[reply] ≥ 20 µM

---

system-tested: E3 (His-APC11/APC2, "APC") (Homo sapiens, UniProt Q9NYG5+Q9UJX6)
Sequence (Q9NYG5 whole entry): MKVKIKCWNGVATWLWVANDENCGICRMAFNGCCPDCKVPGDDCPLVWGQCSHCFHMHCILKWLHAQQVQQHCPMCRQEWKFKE
Sequence (Q9UJX6 whole entry): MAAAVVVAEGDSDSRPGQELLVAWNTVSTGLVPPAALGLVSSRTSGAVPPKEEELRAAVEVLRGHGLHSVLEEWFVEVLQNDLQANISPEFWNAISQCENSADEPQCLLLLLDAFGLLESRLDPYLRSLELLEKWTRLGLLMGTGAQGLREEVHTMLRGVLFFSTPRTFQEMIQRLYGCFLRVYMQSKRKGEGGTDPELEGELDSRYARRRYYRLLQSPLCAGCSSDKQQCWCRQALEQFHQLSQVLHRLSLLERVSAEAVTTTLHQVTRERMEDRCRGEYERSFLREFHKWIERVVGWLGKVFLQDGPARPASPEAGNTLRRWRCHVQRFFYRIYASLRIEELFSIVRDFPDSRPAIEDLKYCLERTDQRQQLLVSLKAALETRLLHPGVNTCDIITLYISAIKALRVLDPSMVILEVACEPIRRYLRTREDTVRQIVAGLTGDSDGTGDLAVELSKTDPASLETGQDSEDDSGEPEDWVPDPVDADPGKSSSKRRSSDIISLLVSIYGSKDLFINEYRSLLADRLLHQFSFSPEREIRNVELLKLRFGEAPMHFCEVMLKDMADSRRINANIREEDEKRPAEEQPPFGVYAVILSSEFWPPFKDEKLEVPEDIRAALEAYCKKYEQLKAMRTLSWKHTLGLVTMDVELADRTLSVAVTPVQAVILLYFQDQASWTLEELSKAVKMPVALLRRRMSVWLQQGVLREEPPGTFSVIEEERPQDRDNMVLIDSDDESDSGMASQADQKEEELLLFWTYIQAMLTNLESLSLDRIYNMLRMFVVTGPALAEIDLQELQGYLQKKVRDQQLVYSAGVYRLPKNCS
assay-details: Plate-based E3 ligase assay (APC FLAG), auto-ubiquitination
Assay type: biochemical
setup-conditions: Table 2; read-out: APC IC50
pIC50: −log10 of the molar value.
readout-label: pIC50

// solved cases for pIC50 follow
compound	result
COc1cccc(CN(Cc2ccc(C(=O)N3CCNCC3)cc2)c2nc(-c3cccc([N+](=O)[O-])c3)cs2)c1OC	≤ 4.70
COc1cccc(CN(Cc2ccc(C(=O)N3CCNCC3)cc2)c2nc(-c3ccccc3Cl)cs2)c1OC	4.70 to 6.00
COc1ccc(OC)c(-c2csc(N(Cc3ccc(C(=O)N4CCNCC4)cc3)Cc3cccc(OC(F)(F)F)c3)n2)c1	4.70 to 6.00

[ask] Quick one: pIC50 of COc1cccc(CN(Cc2ccc(C(=O)N3CCNCC3)cc2)c2nc(-c3ccc(C)cc3)cs2)c1OC [compound 230] ?
[reply] 4.70 to 6.00

[ask] Quick one: pIC50 of O=C(c1ccc(CN(Cc2cccc(OC(F)(F)F)c2)c2nc(-c3ccccc3)cs2)cc1)N1CCNCC1 ?
[reply] 4.70 to 6.00

[ask] Quick one: pIC50 of O=C(c1ccc(CN(CCOc2ccccc2)c2nc(-c3ccc(F)cc3)cs2)cc1)N1CCNCC1 ?
[reply] ≤ 4.70

---

system-tested: MDM2 (Homo sapiens)
assay-details: Plate-based E3 ligase assay, MDM2 autoubiquitination (MDM2-FLAG)
Format: biochemical
setup-conditions: Table 2; read-out: MDM2 IC50
Description: E3 (His-APC11/APC2—“APC”) auto-ubiquitination was measured as described in U.S. patent application Ser. No. 09/826,312 (Publication No. US-2002-0042083-A1), which is incorporated herein in its entirety. Details of the protocol are described below. Activity in the presence of the compound was determined relative to a parallel control in which only DMSO was added. […] In similar manner, autoubiquitination of the E3 MDM2 was determined (MDM2-FLAG). […]
readout-label: IC50

compound	IC50
COc1cccc(-c2csc(N(Cc3ccccc3)Cc3ccc(C(=O)NCC(=O)O)cc3)n2)c1 [compound 177]	< 1 µM
COc1cccc(-c2csc(N(CCOc3ccccc3)Cc3ccc(C(=O)N4CCNCC4)cc3)n2)c1 [compound 352]	1 to 20 µM

[ask] Quick one: IC50 of COc1cccc(CN(Cc2ccc(C(=O)N3CCNCC3)cc2)c2nc(-c3ccc(C)cc3)cs2)c1OC [compound 230] ?
[reply] ≥ 20 µM

[ask] Quick one: IC50 of COc1cccc(-c2csc(N(Cc3ccc(C(=O)N4CCNCC4)cc3)Cc3cccc(OC(F)(F)F)c3)n2)c1 [compound 351] ?
[reply] 1 to 20 µM

[ask] Quick one: IC50 of O=C(c1ccc(CN(Cc2cccc(OC(F)(F)F)c2)c2nc(-c3ccc(Cl)c(Cl)c3)cs2)cc1)N1CCNCC1 [compound 359] ?
[reply] 1 to 20 µM

[ask] Quick one: IC50 of CCN(Cc1ccc(C(=O)NCc2cccc(CN)c2)cc1)c1nc(-c2ccc(-c3ccccc3)cc2)cs1 [compound 65] ?
[reply] 1 to 20 µM

[ask] Quick one: IC50 of CN(Cc1ccc(C(=O)NC(Cc2ccccc2)C(=O)O)cc1)c1nc(-c2ccc(Cl)cc2)cs1 (centres unmarked) [compound 15] ?
[reply] 1 to 20 µM

[ask] Quick one: IC50 of CC(C)N(CCN(Cc1ccc(C(=O)N2CCNCC2)cc1)c1nc(-c2ccccc2Cl)cs1)C(C)C [compound 225] ?
[reply] ≥ 20 µM
